Would you kindly list koff for each of these binders?
# assayedSystem: T1, human FGFR2b (Kaixia Biotechnology, catalog number FGR-HM1BB) (human, UniProt P21802-3 22-378)
# T1 construct: extracellular domain; bought; also called hFGFR2b; human FGFR2b protein
# T1 sequence (P21802 other isoform, or with tags, fused parts or gaps): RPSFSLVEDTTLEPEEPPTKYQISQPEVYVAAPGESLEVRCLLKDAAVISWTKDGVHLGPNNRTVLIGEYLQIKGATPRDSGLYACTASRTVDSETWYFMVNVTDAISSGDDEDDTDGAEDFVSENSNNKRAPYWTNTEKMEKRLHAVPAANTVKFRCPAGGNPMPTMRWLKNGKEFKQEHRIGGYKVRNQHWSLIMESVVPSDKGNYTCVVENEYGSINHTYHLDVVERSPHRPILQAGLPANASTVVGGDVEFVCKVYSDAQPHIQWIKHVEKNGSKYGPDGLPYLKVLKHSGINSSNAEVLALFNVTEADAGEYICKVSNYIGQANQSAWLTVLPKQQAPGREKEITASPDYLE
# experiment: BLI, antibody on AHC2 sensor
Answer in s⁻¹, number only, no unit symbol.

Challenge: Would you kindly share the measured koff for 3C7-VH0-VL1 (antibody, human IgG1, kappa, V domains shown, humanized IgG1) VH: QVQLVQSGAEVKKPGASVKVSCKASGYTFTNYYIHWVRQAPGQGLEWMGAIYPDNGDTSYNQRFKVRATLTADTSTSTVYMELSSLRSEDTAVYYCARAFTYWGQGTTVTVSS VL: DIQMTQSPSSLSASVGDRVTITCGASENIYGALNWYQQKPGKAPKLLIYGATNLADGVPSRFSGSGSGTDYTLTISSLQPEDVATYYCQNVLSTPYTFGGGTKVEIKR ?
Response given: 0.00315

Challenge: Would you kindly share the measured koff for 3C7-VH3-VL1 (antibody, human IgG1, kappa, V domains shown, humanized IgG1) VH: QVQLVQSGAEVKKPGASVKVSCKASGYIFRNYYIHWVKQAPGQGLEWMGAIYPDNGDTSYNQRFKVRATLTADTSTSTVYMELSSLRSEDTAVYYCARAFTYWGQGTTVTVSS VL: DIQMTQSPSSLSASVGDRVTITCGASENIYGALNWYQQKPGKAPKLLIYGATNLADGVPSRFSGSGSGTDYTLTISSLQPEDVATYYCQNVLSTPYTFGGGTKVEIKR ?
Response given: 0.00106

Challenge: Would you kindly share the measured koff for 3C7-VH3-VL2 (antibody, human IgG1, kappa, V domains shown, humanized IgG1) VH: QVQLVQSGAEVKKPGASVKVSCKASGYIFRNYYIHWVKQAPGQGLEWMGAIYPDNGDTSYNQRFKVRATLTADTSTSTVYMELSSLRSEDTAVYYCARAFTYWGQGTTVTVSS VL: DIQMTQSPSSLSASVGDRVTITCGASENIYGALNWYQRKPGKAPKLLIYGATNLADGVPSRFSGSGSGTDYTLTISSLQPEDFATYYCQNVLSTPYTFGGGTKLEIKR ?
Response given: 0.000829

Challenge: Would you kindly share the measured koff for 3H9-VH2-VL1 (antibody, human IgG1, kappa, V domains shown, humanized IgG1) VH: QVQLVQSGAEVKKPGASVKVSCKASGYTFSFYNMHWVRQAPGQGLEWIGLIYPDNGDTSYNQKFKGRATLTADTSTSTVYMELSSLRSEDTAVYYCARGGLDYWGQGTTVTVSS VL: DIQMTQSPSSLSASVGDRVTITCRASENIYSNLAWYQQKPGKSPKLLIYAATNLADGVPSRFSGSGSGTDYTLTISSLQPEDFATYYCQHFWGTPYTFGGGTKVEIKR ?
Response given: 0.000752
